target: human cloned dopamine D4.2 receptors (Homo sapiens, UniProt P21917, DEL265-296); construct: expressed in transfected cells; host or cells: CHO cells; experiment: Inhibition of the binding of [3H]YM-09151-2 to D4.2 receptors; settings: % inhibition of binding at 50 nM; [3H]YM-09151-2 0.06 nM
Sequence (P21917 with tags, fused parts or gaps DEL265-296): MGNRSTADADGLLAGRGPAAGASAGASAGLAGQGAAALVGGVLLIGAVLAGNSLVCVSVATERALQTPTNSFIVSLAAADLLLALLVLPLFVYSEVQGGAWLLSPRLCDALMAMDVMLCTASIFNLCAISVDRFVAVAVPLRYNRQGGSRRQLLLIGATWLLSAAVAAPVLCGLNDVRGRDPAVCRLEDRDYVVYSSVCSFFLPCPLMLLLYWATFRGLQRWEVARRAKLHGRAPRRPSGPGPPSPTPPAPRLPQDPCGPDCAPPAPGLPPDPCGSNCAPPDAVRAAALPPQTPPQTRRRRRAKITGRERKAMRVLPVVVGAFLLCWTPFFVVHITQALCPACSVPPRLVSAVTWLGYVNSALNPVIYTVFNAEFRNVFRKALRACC
Structures can show the parent of a compound that is named as a salt.
% inhib. at the D4-receptor listing for selected compounds.
Reply numerically in %, unit not repeated.

// query I am curious: what % inhib. at the D4-receptor value has been reported for CC(=O)N1CC(CCN2CCN(c3ccc(C)c(C)c3)CC2)c2ccccc21.Cl (single isomer, unassigned; (+)) ?
// result 88

// query Which % inhib. at the D4-receptor value belongs to CC(=O)N1CC(CCN2CCN(c3ccc(Cl)c(Cl)c3)CC2)c2ccccc21 (single isomer, unassigned; (+)) [Compound 1d, hydrochloride] ?
// result 86

// query May I ask what % inhib. at the D4-receptor has been recorded for CC(=O)N1CC(CCN2CCC(c3ccc(C)cc3)CC2)c2ccccc21 (single isomer, unassigned; (+)) ?
// result 76

// query // % inhib. at the D4-receptor lookup, key: CC(=O)N1CC(CCN2CCN(c3ccc(C)cc3)CC2)c2ccccc21.Cl (single isomer, unassigned; (+))
// result 88

// query Sample CC(=O)N1CC(CCN2CCN(c3ccc(Br)cc3)CC2)c2ccccc21 (centres unmarked) [Compound 1e, hydrochloride] — what was its % inhib. at the D4-receptor?
// result 95

---

target: 5-HT2A receptors (Rattus norvegicus); construct: membranes from rat brain (cortex) in vitro; from tissue; host or cells: rat brain cortex membranes; experiment: Inhibition of the binding of [3H]Ketanserin to 5-HT2A receptors; conditions: [3H]Ketanserin 0.50 nM, membranes from rat brain (cortex); read-out: IC50 (nM) at the 5HT2A-receptor
Counter-ions that a name gives are not always drawn.
property measured: IC50 (nM)
Entry rule: numbers only, all in nM.

Known results for compounds:
{"columns": ["compound", "IC50 / nM"],
 "data": [
  ["CC(=O)N1CC(CCN2CCN(c3ccc(Br)cc3)CC2)c2ccccc21 (stereo not drawn) [Compound 1e, hydrochloride]", 17],
  ["CC(=O)N1CC(CCN2CCN(c3ccc(Cl)c(Cl)c3)CC2)c2ccccc21 (single isomer, unassigned; (+)) [Compound 1d, hydrochloride]", 21]
]}

Now look at this entry.
// query IC50 for CC(=O)N1CC(CCN2CCC(c3ccc(C)cc3)CC2)c2ccccc21 (single isomer, unassigned; (+)) [Compound 1c] ?
// result 17

---

biological target: human cloned dopamine D4.2 receptors (Homo sapiens, UniProt P21917, DEL265-296); construct: expressed in transfected cells; host or cells: CHO cells; experiment: Inhibition of the binding of [3H]YM-09151-2 to D4.2 receptors; conditions: [3H]YM-09151-2 0.06 nM, membranes of CHO-cells; read-out: IC50 (nM) at the D4-receptor
Structures can show the parent of a compound that is named as a salt.
# key: entry, value: IC50

Solved entries (count: 2):
{"columns": ["compound", "assay result"],
 "data": [
  ["CC(=O)N1CC(CCN2CC=C(c3ccc(Cl)c(Cl)c3)CC2)c2ccccc21 (stereo not shown) [Compound 1f, hydrochloride]", "13 nM"],
  ["CC(=O)N1CC(CCN2CCC(c3ccc(Cl)c(Cl)c3)CC2)c2ccccc21 (stereo not shown) [Compound 1g, hydrochloride]", "5.4 nM"]
]}

// query # query: IC50 of entry CC(=O)N1CC(CCN2CCN(c3ccc(C)c(C)c3)CC2)c2ccccc21.Cl (single isomer, unassigned; (+)) [Compound 1a, hydrochloride]
// result < 50 nM

// query What does the data say about its IC50? Entry: CC(=O)N1CC(CCN2CCN(c3ccc(Cl)c(Cl)c3)CC2)c2ccccc21 (single isomer, unassigned; (+)) [Compound 1d, hydrochloride]
// result < 50 nM

// query Query (compound): CC(=O)N1CC(CCN2CCC(c3ccc(C)cc3)CC2)c2ccccc21 (single isomer, unassigned; (+)) ; field requested: IC50
// result < 50 nM

// query Requested read-out: IC50. Entry: CC(=O)N1CC(CCN2CCN(c3ccc(Br)cc3)CC2)c2ccccc21 (stereo not shown) [Compound 1e, hydrochloride]
// result < 50 nM

// query Could you tell me which IC50 is on file for CC(=O)N1CC(CCN2CCN(c3ccc(C)cc3)CC2)c2ccccc21.Cl (single isomer, unassigned; (+)) [Compound 1b, hydrochloride] ?
// result < 50 nM

---

target: 5-HT2A receptors (Rattus norvegicus, UniProt P14842); construct: membranes from rat brain (cortex) in vitro; from tissue; host or cells: rat brain cortex membranes; experiment: Inhibition of the binding of [3H]Ketanserin to 5-HT2A receptors; settings: [3H]Ketanserin 0.50 nM, membranes from rat brain (cortex); read-out: IC50 (nM) at the 5HT2A-receptor
Sequence (P14842 whole entry): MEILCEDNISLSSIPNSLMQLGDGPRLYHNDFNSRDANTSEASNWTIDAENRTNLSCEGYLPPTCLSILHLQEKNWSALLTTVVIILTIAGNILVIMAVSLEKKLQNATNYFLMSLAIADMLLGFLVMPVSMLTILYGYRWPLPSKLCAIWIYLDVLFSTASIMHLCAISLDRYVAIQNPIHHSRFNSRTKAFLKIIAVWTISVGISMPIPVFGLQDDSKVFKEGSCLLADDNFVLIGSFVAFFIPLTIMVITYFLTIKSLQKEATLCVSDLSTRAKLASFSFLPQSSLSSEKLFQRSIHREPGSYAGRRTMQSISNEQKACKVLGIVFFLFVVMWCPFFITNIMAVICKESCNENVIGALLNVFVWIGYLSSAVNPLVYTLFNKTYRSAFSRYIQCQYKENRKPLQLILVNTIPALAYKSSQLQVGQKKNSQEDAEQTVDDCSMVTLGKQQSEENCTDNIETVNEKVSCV
Counter-ions that a name gives are not always drawn.
property measured: IC50 (nM)
Your answer should be a plain number; it is taken to be in nM.

{"columns": ["molecule", "assay result"],
 "data": [
  ["CC(=O)N1CC(CCN2CC=C(c3ccc(Cl)c(Cl)c3)CC2)c2ccccc21 (stereo not shown) [Compound 1f, hydrochloride]", 27],
  ["CC(=O)N1CC(CCN2CCN(c3ccc(C)c(C)c3)CC2)c2ccccc21.Cl (single isomer, unassigned; (+)) [Compound 1a, hydrochloride]", 5],
  ["CC(=O)N1CC(CCN2CCC(c3ccc(Cl)c(Cl)c3)CC2)c2ccccc21 (stereo not shown) [Compound 1g, hydrochloride]", 21]
]}

// query Could you tell me which IC50 is on file for CC(=O)N1CC(CCN2CCN(c3ccc(C)cc3)CC2)c2ccccc21.Cl (single isomer, unassigned; (+)) [Compound 1b, hydrochloride] ?
// result 15
